Biological target: GOPC, Q9HD26
Assay: holdup assay
Design: key: below the threshold = too weak to quantify, mostly under pKd 3.1 to 4
Conditions: plain residues with an end cap or a label only (N-terminal biotin on a linker: ado-ado)
MEASURED ENDPOINT: pKd

Illustrative cases are given below, each with its answer.
SKQFDKNAYV [CLDN10, P78369]	below the threshold
VYEVPVETKF [SLC26A3, P40879]	below the threshold
SSSVNVSSNL [CXCR1, P25024]	below the threshold
ELKAEDEVQI [DCHS2, Q6V1P9]	below the threshold
FVFESRKEIL [TBPL1, P62380]	below the threshold
DFKHTKSFII [JAM2, P57087]	below the threshold

Value of pKd reported for the binder DYSNLRETDI [ADRA1D, P25100] is below the threshold

Value of pKd reported for the binder RGKNRRQSIF [CDK18, Q07002] is below the threshold

Value of pKd reported for the binder IQISELETNV [SLC1A7, O00341] is below the threshold

Value of pKd reported for the binder MQILSKPEFI [NPSR1, Q6W5P4] is below the threshold

Value of pKd reported for the binder HYPASPDSWV [CTNND2, Q9UQB3] is below the threshold

Value of pKd reported for the binder KPDKQEEFYA [SDC3, O75056] is below the threshold

Value of pKd reported for the binder NISARRFTLC [FAM167B, Q9BTA0] is below the threshold

Value of pKd reported for the binder SGDGKTSVWI [GJC1, P36383] is below the threshold

Value of pKd reported for the binder GDSSRKEYFI [GYPC, P04921] is below the threshold
